# Species: Mus musculus
# PROTOCOL NOTES: Analgesic activity in Swiss-Webster mouse measured for 20 mins by tail flick test
# Assay type: functional
RECORDED ENDPOINT: ED50

[[record]]
compound = "C=CC(C)(C)N1CC[C@]23c4c5ccc(O)c4O[C@H]2[C@@H](O)C=C[C@H]3[C@H]1C5"
measured_result = "> 295 µmol/kg"

[[record]]
compound = "CCCC(C)N1CC[C@]23c4c5ccc(O)c4O[C@H]2[C@@H](O)C=C[C@H]3[C@H]1C5 (some centres undefined)"
measured_result = "> 439 µmol/kg"

[[record]]
compound = "Oc1ccc2c3c1O[C@H]1[C@@H](O)C=C[C@H]4[C@@H](C2)N(C2CCCCCC2)CC[C@@]341"
measured_result = "> 136 µmol/kg"


Query compound follows.
Name the recorded ED50 of the compound listed here: CCCN1CC[C@]23c4c5ccc(O)c4O[C@H]2[C@@H](O)C=C[C@H]3[C@H]1C5
51 µmol/kg
